// data source = patent US20160102129A1

Exercise: for every item that follows, state its recorded log10 of IC50.
Target: T1, human glucagon receptor (human, UniProt P47871 26-477)
T1 construct: whole, on cells; reporter assay on whole cells
T1 sequence (P47871 26-477): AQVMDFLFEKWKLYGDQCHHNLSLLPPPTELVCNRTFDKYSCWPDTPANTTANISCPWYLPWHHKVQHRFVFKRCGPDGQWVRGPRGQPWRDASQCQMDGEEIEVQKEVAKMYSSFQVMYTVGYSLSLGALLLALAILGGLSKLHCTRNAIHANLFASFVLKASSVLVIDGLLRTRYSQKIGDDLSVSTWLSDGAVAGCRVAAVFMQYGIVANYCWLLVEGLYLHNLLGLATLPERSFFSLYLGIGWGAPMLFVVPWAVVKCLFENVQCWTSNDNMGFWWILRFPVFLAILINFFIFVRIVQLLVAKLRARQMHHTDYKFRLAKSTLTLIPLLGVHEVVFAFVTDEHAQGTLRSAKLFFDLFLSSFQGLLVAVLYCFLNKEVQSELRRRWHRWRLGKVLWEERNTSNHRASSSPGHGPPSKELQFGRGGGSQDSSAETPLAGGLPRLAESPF
Assay: SPA displacement of [125I]-glucagon from human glucagon receptor BHK membranes
*1 amine or outer side, *2 acyl side, *3 side chain or, on linkers, in order; H or OH if unused. Where no end group is shown, it is not given here. Side-chain parts run from the residue outwards. [ ]: non-standard residue; d: D form. The star is where a group is joined. C20 diacid = O=C(O)CCCCCCCCCCCCCCCCCCC(=O)*; C18 diacid = O=C(O)CCCCCCCCCCCCCCCCC(=O)*; γGlu = O=C(O)[C@H](CCC(=O)[*:2])N[*:1]; Desaminohistidyl = O=C(CCc1c[nH]cn1)*; Ac4c = NC1(C(=O)O)CCC1; Aib = CC(C)(N)C(=O)O
Annotation: log10 of IC50, nM basis.

Some binders with known log10 of IC50 results, for comparison:
{"columns": ["binder", "val"],
 "data": [
  ["[Desaminohistidyl][Aib]HGTFTSDVSKYLEEQAAREFIAWLLK([Ado-Ado-γGlu-γGlu-C20 diacid])T-NH2", 1.00],
  ["[Desaminohistidyl]AHGTFTSDVSRYLEGRAAREFIAWLLK([Ado-Ado-γGlu-γGlu-γGlu-C18 diacid])", 1.64],
  ["[Desaminohistidyl]AHGTFTSDVSKYLEGRAAREFIAWLLK([Ado-Ado-γGlu-γGlu-γGlu-C18 diacid])GGG", 1.84],
  ["XXHGTFTSDYSRYLEEQAAREFIAWLLRK (Imp (desamino-His) at 7; Acb at 8; Lys35 N-epsilon acylated with 17-carboxyheptadecanoyl-γGlu-γGlu-Ado-γGlu-Ado-γGlu-Ado-γGlu-; C-terminal amide (GLP-1(7-37) numbering))", 0.75]
]}

Moving on to the next binder.
Q: Query (binder): [Desaminohistidyl][Ac4c]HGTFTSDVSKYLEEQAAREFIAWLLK([Gly-Ser-Glu-Gly-Ser-γGlu-γGlu-C18 diacid])T-NH2 ; field requested: log10 of IC50
A: 0.61
